# System: giant foxtail (Setaria faberii)
# experiment: Test A postemergence
# Assay type: in vivo
# condition-label: Setaria faberi, post-emergence, 240 h, 125 g ai/ha, postemergence; visual injury after approximately 10 d; 0 to 100 scale (0 no effect, 100 complete control); read-out: Plant response rating, Foxtail, Giant
# From the text: […]
Provide the recorded pest or weed control at 125 g/ha for the entries that follow.
Output spec: scalar in %, unitless text.

stdin: // pest or weed control at 125 g/ha lookup, key: Cc1ccc([C@H]2CN(C)C(=O)[C@@H]2C(=O)Nc2ccccc2S(C)(=O)=O)cc1C
stdout: 90

stdin: // pest or weed control at 125 g/ha lookup, key: O=C1NC[C@H](c2csc3ccccc23)[C@H]1C(=O)Nc1ccccc1F
stdout: 20

stdin: // pest or weed control at 125 g/ha lookup, key: Cc1cc([C@H]2CN(C)C(=O)[C@@H]2C(=O)Nc2cccc(F)c2F)cc(C)c1C
stdout: 90

stdin: // pest or weed control at 125 g/ha lookup, key: CN1C[C@H](c2ccc(F)c(OC(F)(F)C(F)F)c2)[C@@H](C(=O)Nc2ccccc2F)C1=O
stdout: 90

stdin: // pest or weed control at 125 g/ha lookup, key: COc1cc([C@H]2CN(C)C(=O)[C@@H]2C(=O)Nc2ccccc2SC)ccc1C(F)(F)F
stdout: 70

stdin: // pest or weed control at 125 g/ha lookup, key: Cc1cc(F)cc([C@H]2CN(C)C(=O)[C@@H]2C(=O)Nc2cccc(F)c2C#N)c1
stdout: 80

stdin: // pest or weed control at 125 g/ha lookup, key: O=C1NC[C@H](c2ccc(C3CC3)cc2)[C@H]1C(=O)Nc1ccccc1F
stdout: 40

stdin: // pest or weed control at 125 g/ha lookup, key: Cc1ccc([C@H]2CN(C)C(=O)[C@@H]2C(=O)Nc2cccc(F)c2F)c(F)c1
stdout: 90

====

# Tested on: ivy-leaved morning glory (Ipomoea hederacea)
# experiment: Test G Pre-Emergence Protocol
# Assay type: in vivo
# condition-label: Ipomoea, pre-emergence, 312 h, 250 g ai/ha, evaluated after 13 days, read-out: Morningglory, Ivy-leaved damage rating (100=total damage to plant; 0=no damage to plant)
Provide the recorded pest or weed control at 250 g/ha for the entries that follow.
Output spec: scalar in %, unitless text.

stdin: // pest or weed control at 250 g/ha lookup, key: CN1C[C@H](c2ccc(C(F)(F)F)cc2)[C@@H](C(=O)Nc2cnccc2[S+](C)[O-])C1=O (mixture of isomers)
stdout: 0

stdin: // pest or weed control at 250 g/ha lookup, key: Cc1ccc(NC(=O)[C@@H]2C(=O)N(C)C[C@H]2c2ccc(C(F)(F)F)cc2)c(F)c1 (racemic)
stdout: 0

stdin: // pest or weed control at 250 g/ha lookup, key: CN1C[C@H](c2ccc(C(F)(F)F)cc2)[C@@H](C(=O)Nc2ccc(F)c(C(F)(F)F)c2)C1=O (racemic)
stdout: 0

stdin: // pest or weed control at 250 g/ha lookup, key: Cc1cc(NC(=O)[C@@H]2C(=O)N(C)C[C@H]2c2ccc(C(F)(F)F)cc2)no1 (racemic)
stdout: 0

stdin: // pest or weed control at 250 g/ha lookup, key: Cc1cncc(NC(=O)[C@@H]2C(=O)N(C)C[C@H]2c2ccc(C(F)(F)F)cc2)n1 (racemic)
stdout: 0

stdin: // pest or weed control at 250 g/ha lookup, key: Cc1c(NC(=O)[C@H]2C(=O)N(C)C[C@@H]2c2ccc(C(F)(F)F)cc2)cccc1C(F)(F)F (racemic)
stdout: 0

stdin: // pest or weed control at 250 g/ha lookup, key: Cc1c(C#N)cccc1NC(=O)[C@H]1C(=O)N(C)C[C@@H]1c1ccc(C(F)(F)F)cc1 (racemic)
stdout: 40

stdin: // pest or weed control at 250 g/ha lookup, key: CN1C[C@H](c2ccc3occc3c2)[C@@H](C(=O)Nc2cccc(F)c2F)C1=O (racemic)
stdout: 20

stdin: // pest or weed control at 250 g/ha lookup, key: CN1C[C@H](c2ccc(C(F)(F)F)cc2)[C@@H](C(=O)Nc2cnccc2C#N)C1=O (racemic)
stdout: 0

stdin: // pest or weed control at 250 g/ha lookup, key: CN1C[C@H](c2ccc(Cl)cc2)[C@@H](C(=O)Nc2cnccc2C(F)(F)F)C1=O
stdout: 40

stdin: // pest or weed control at 250 g/ha lookup, key: CN1C[C@@H](c2ccc(NS(C)(=O)=O)cc2)[C@H](C(=O)Nc2ccccc2F)C1=O (racemic)
stdout: 0

stdin: // pest or weed control at 250 g/ha lookup, key: C=C(C)c1ccccc1NC(=O)[C@H]1C(=O)N(C)C[C@@H]1c1cccc(C(F)(F)F)c1 (racemic)
stdout: 0

stdin: // pest or weed control at 250 g/ha lookup, key: CN1C[C@@H](c2ccc(C(F)(F)F)nc2)[C@H](C(=O)Nc2ccccc2F)C1=O (racemic)
stdout: 60

stdin: // pest or weed control at 250 g/ha lookup, key: CN1C[C@@H](c2ccc(C(F)(F)F)cc2)[C@H](C(=O)Nc2ccno2)C1=O (racemic)
stdout: 0

stdin: // pest or weed control at 250 g/ha lookup, key: CN1C[C@H](c2ccc(C(F)(F)F)cc2)[C@@H](C(=O)Nc2ccc(F)cn2)C1=O (racemic)
stdout: 0

stdin: // pest or weed control at 250 g/ha lookup, key: CC(C)Oc1cc(OC(F)(F)F)cc(C2CN(C)C(=O)C2C(=O)Nc2cccc(F)c2F)c1 (stereo not drawn)
stdout: 0

stdin: // pest or weed control at 250 g/ha lookup, key: Cc1nc(NC(=O)[C@@H]2C(=O)N(C)C[C@H]2c2ccc(C(F)(F)F)cc2)ccc1Cl (racemic)
stdout: 0

stdin: // pest or weed control at 250 g/ha lookup, key: CN1C[C@H](c2cccc(C(F)(F)F)c2)[C@@H](C(=O)Nc2cc(O)ccc2F)C1=O (racemic)
stdout: 0

stdin: // pest or weed control at 250 g/ha lookup, key: CN1C[C@@H](c2ccc(Cl)nc2)[C@H](C(=O)Nc2cccc(F)c2F)C1=O (racemic)
stdout: 50

stdin: // pest or weed control at 250 g/ha lookup, key: CN1C[C@@H](c2ccc(C(F)(F)F)cc2)[C@H](C(=O)Nc2ccccc2)C1=O (racemic)
stdout: 20

stdin: // pest or weed control at 250 g/ha lookup, key: Cc1nnc(NC(=O)[C@@H]2C(=O)N(C)C[C@H]2c2ccc(C(F)(F)F)cc2)s1 (racemic)
stdout: 0

stdin: // pest or weed control at 250 g/ha lookup, key: CN1C[C@@H](c2ccc(C(F)(F)F)cc2)[C@H](C(=O)Nc2cc[nH]n2)C1=O (racemic)
stdout: 0

stdin: // pest or weed control at 250 g/ha lookup, key: CN1C[C@H](c2ccc(C(F)(F)F)cc2)[C@@H](C(=O)Nc2cnccc2[N+](=O)[O-])C1=O (racemic)
stdout: 0

stdin: // pest or weed control at 250 g/ha lookup, key: CN1C[C@@H](c2ccc(C(F)(F)F)cc2)[C@H](C(=O)Nc2ccc(C(F)(F)F)nc2Cl)C1=O (racemic)
stdout: 0

stdin: // pest or weed control at 250 g/ha lookup, key: CN1C[C@@H](c2ccc(C(F)(F)F)cc2)[C@H](C(=O)Nc2ncc(C#N)s2)C1=O (racemic)
stdout: 0

stdin: // pest or weed control at 250 g/ha lookup, key: CN1C[C@@H](c2ccc(C(F)(F)F)cc2)[C@H](C(=O)Nc2cscn2)C1=O (racemic)
stdout: 0

stdin: // pest or weed control at 250 g/ha lookup, key: CN1C[C@@H](c2ccc(C(F)(F)F)cc2)[C@H](C(=O)Nc2nnc(C(F)(F)F)s2)C1=O (racemic)
stdout: 0
